Target: Kappa-type opioid receptor (Homo sapiens, UniProt P41145)
Sequence (P41145 whole entry): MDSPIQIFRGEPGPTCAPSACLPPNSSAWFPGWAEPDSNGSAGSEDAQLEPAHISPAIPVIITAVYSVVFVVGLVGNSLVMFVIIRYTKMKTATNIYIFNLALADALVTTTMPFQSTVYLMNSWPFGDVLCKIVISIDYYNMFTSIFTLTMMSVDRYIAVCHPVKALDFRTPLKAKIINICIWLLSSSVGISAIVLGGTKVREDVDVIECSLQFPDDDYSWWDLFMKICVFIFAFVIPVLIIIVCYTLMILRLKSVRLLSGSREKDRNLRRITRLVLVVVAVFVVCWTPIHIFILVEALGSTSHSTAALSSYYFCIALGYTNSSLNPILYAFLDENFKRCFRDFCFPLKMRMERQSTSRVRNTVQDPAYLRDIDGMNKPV
Experiment: Displacement of [3H]-U69593 from human recombinant kappa opioid receptor by radioligand binding assay
endpoint-label: Ki (nM)
One number for each entry, in nM.

Lookup: State the measured Ki (Kappa-type opioid receptor (Homo sapiens, UniProt P41145)) of C[N@+]1(CC2CC2)CC[C@]23c4c5ccc(O)c4O[C@H]2C(=O)CC[C@@]3(O)[C@H]1C5 [METHYLNALTREXONE]
Found: 32.1

###

Record form. Attribute: Ratio Ki. Fill in for each entry.
Assay: Selectivity index, ratio of Ki for binding affinity to human delta opioid receptor to Ki for binding affinity to mouse mu opioid receptor
Give bare numbers.

Some entries whose results are on file:
cpd_smiles=O=C(CCc1cn[nH]c1)N[C@H]1CC[C@@]2(O)[C@H]3Cc4ccc(O)c5c4[C@@]2(CCN3CC2CC2)[C@H]1O5 endpoint_label="Ratio Ki" numeric_readout=83
cpd_smiles=O=C(Cc1cnc[nH]1)N[C@@H]1CC[C@@]2(O)[C@H]3Cc4ccc(O)c5c4[C@@]2(CCN3CC2CC2)[C@H]1O5 endpoint_label="Ratio Ki" numeric_readout=91
cpd_smiles=O=C(CCc1cnc[nH]1)N[C@H]1CC[C@@]2(O)[C@H]3Cc4ccc(O)c5c4[C@@]2(CCN3CC2CC2)[C@H]1O5 endpoint_label="Ratio Ki" numeric_readout=106
cpd_smiles=O=C(N[C@H]1CC[C@@]2(O)[C@H]3Cc4ccc(O)c5c4[C@@]2(CCN3CC2CC2)[C@H]1O5)c1ncc[nH]1 endpoint_label="Ratio Ki" numeric_readout=152
cpd_smiles=O=C(CCc1ncc[nH]1)N[C@@H]1CC[C@@]2(O)[C@H]3Cc4ccc(O)c5c4[C@@]2(CCN3CC2CC2)[C@H]1O5 endpoint_label="Ratio Ki" numeric_readout=99
cpd_smiles=O=C(N[C@H]1CC[C@@]2(O)[C@H]3Cc4ccc(O)c5c4[C@@]2(CCN3CC2CC2)[C@H]1O5)c1cc[nH]n1 endpoint_label="Ratio Ki" numeric_readout=35
cpd_smiles=O=C(N[C@@H]1CC[C@@]2(O)[C@H]3Cc4ccc(O)c5c4[C@@]2(CCN3CC2CC2)[C@H]1O5)c1cn[nH]c1 endpoint_label="Ratio Ki" numeric_readout=72
cpd_smiles=O=C(CCc1cc[nH]n1)N[C@@H]1CC[C@@]2(O)[C@H]3Cc4ccc(O)c5c4[C@@]2(CCN3CC2CC2)[C@H]1O5 endpoint_label="Ratio Ki" numeric_readout=202
cpd_smiles=O=C(Cc1ncc[nH]1)N[C@H]1CC[C@@]2(O)[C@H]3Cc4ccc(O)c5c4[C@@]2(CCN3CC2CC2)[C@H]1O5 endpoint_label="Ratio Ki" numeric_readout=21
cpd_smiles=O=C(N[C@H]1CC[C@@]2(O)[C@H]3Cc4ccc(O)c5c4[C@@]2(CCN3CC2CC2)[C@H]1O5)c1cn[nH]c1 endpoint_label="Ratio Ki" numeric_readout=64

Report Ratio Ki for each item below.
1. O=C(CCc1cc[nH]n1)N[C@H]1CC[C@@]2(O)[C@H]3Cc4ccc(O)c5c4[C@@]2(CCN3CC2CC2)[C@H]1O5
2. O=C(Cc1cc[nH]n1)N[C@@H]1CC[C@@]2(O)[C@H]3Cc4ccc(O)c5c4[C@@]2(CCN3CC2CC2)[C@H]1O5
3. O=C(CCc1ncc[nH]1)N[C@H]1CC[C@@]2(O)[C@H]3Cc4ccc(O)c5c4[C@@]2(CCN3CC2CC2)[C@H]1O5
4. O=C(N[C@H]1CC[C@@]2(O)[C@H]3Cc4ccc(O)c5c4[C@@]2(CCN3CC2CC2)[C@H]1O5)c1cnc[nH]1

Found:
[433, 186, 6, 29]

Report Ratio Ki for each item below.
1. O=C(CCc1cnc[nH]1)N[C@@H]1CC[C@@]2(O)[C@H]3Cc4ccc(O)c5c4[C@@]2(CCN3CC2CC2)[C@H]1O5
2. O=C(N[C@@H]1CC[C@@]2(O)[C@H]3Cc4ccc(O)c5c4[C@@]2(CCN3CC2CC2)[C@H]1O5)c1ncc[nH]1
3. O=C(CCc1cn[nH]c1)N[C@@H]1CC[C@@]2(O)[C@H]3Cc4ccc(O)c5c4[C@@]2(CCN3CC2CC2)[C@H]1O5
4. O=C(Cc1cn[nH]c1)N[C@H]1CC[C@@]2(O)[C@H]3Cc4ccc(O)c5c4[C@@]2(CCN3CC2CC2)[C@H]1O5

Found:
1: 60; 2: 335; 3: 322; 4: 3920
